Each record here notes measured melting point.

compound: O=C(Nc1cc(-c2ccc(Cl)cc2)cc(-c2ccc(Cl)cc2)c1)NC1CCCC1 [Compound 4d]
melting point: 239 to 240 °C
--
compound: Nc1cc(-c2ccc(Cl)cc2)cc(-c2ccccc2)c1C(=O)O [Compound 2c]
melting point: 229 to 230 °C

// next item, melting point requested
Entry Cc1ccc(-c2cc(NC(=O)NC3CCCC3)cc(-c3ccccc3)c2)cc1 [Compound 4b] , melting point reported as 217 to 218 °C

====

Catalogue of melting point values

Consider the worked cases shown below.
structure-smiles-string: Nc1cc(-c2ccc(Br)cc2)cc(-c2ccc(Br)cc2)c1C(=O)O
melting point: 239 to 240 °C

structure-smiles-string: O=C(Nc1cc(-c2ccccc2)cc(-c2ccc(Cl)cc2)c1)NC1CCCC1
melting point: 203 to 204 °C

structure-smiles-string: Nc1cc(-c2ccc(Br)cc2)cc(-c2ccc(Br)cc2)c1
melting point: 163 to 164 °C

Note to self: melting point recorded for "Nc1cc(-c2ccc(Cl)cc2)cc(-c2ccc(Cl)cc2)c1C(=O)O" was 178 to 179 °C

Quick note, melting point for "COc1ccc(-c2cc(NC(=O)NC3CCCC3)cc(-c3ccccc3)c2)cc1" landed at 208 to 209 °C

GET /value?item= "O=C(Nc1cc(-c2ccc(Br)cc2)cc(-c2ccc(Br)cc2)c1)NC1CCCC1" &field=melting point returns 222 to 223 °C

Short answer for "Nc1cc(-c2ccccc2)cc(-c2ccccc2)c1C(=O)O" : melting point was 162 to 163 °C

Cited source: paper PMC10384011
